Known % transfected, M3 of a selection of substances
# System: HUVEC cells
# Assay method text: Transfection uptake of FAM-labelled oligonucleotides (FACS)
# Type: cell-based, Human
# Experimental context: Table 67, 4 hr post-transfection, 200 nM
Parameter: % transfected, M3 (%)

1) GsTsAsAsTsTsGsCsGsGsCsAsAsGsAsAsGsAsAsTsTsGsTsTsTsCsTsGsT (GTAATTGCGGCAAGAAGAATTGTTTCTGT; chemistry not fully specified) [SEQ1-PTO] : 49
2) AsCsCsCsAsTsGsTsTsGsCsCsTsGsGsGsCsAsCsC (ACCCATGTTGCCTGGGCACC; chemistry not fully specified) [SEQ4-PTO] : 44
3) ACCCATGTTGCCTGGGCACC (chemistry not fully specified) [SEQ4-Q] : 41
4) GTAATTGCGGCAAGAAGAATTGTTTCTGT (DNA, phosphodiester; FAM fluorescent label attached, position not given here) [SEQ1-O] : 40
